Please go through the items and note down their Ratio Ki.
organism: Homo sapiens; assay: Selectivity ratio of Ki for delta opioid receptor (unknown origin) to Ki for mu opioid receptor (unknown origin)
Give bare numbers.

As a guide, the following entries are already answered.
compound: O=C(N[C@@]12CCC(=O)[C@@H]3Oc4c(O)ccc5c4[C@@]31CCN(CC1CC1)[C@@H]2C5)c1ccccn1
Ratio Ki: 63
--
compound: COc1cccc2c1[C@]13CCN(CC4CC4)[C@H](C2)[C@]1(OC)CCC(=O)C3
Ratio Ki: 40
--
compound: O=C(N[C@@]12CCC(=O)[C@@H]3Oc4c(O)ccc5c4[C@@]31CCN(CC1CC1)[C@@H]2C5)c1cnc2ccccc2c1
Ratio Ki: 1.3

Record Ratio Ki per entry; entries follow.
1. O=C(N[C@@]12CCC(=O)[C@@H]3Oc4c(O)ccc5c4[C@@]31CCN(CC1CC1)[C@@H]2C5)c1ccc2ccccc2c1
2. O=C(N[C@@]12CCC(=O)[C@@H]3Oc4c(O)ccc5c4[C@@]31CCN(CC1CC1)[C@@H]2C5)c1ccccc1

1.7
13

* * *

species on record: Homo sapiens; test: Selectivity ratio of Ki for delta opioid receptor (unknown origin) to Ki for mu opioid receptor (unknown origin)
observation_type: Ratio Ki
One number for each entry.

Known Ratio Ki results, listed for orientation:
compound: O=C(N[C@@]12CCC(=O)[C@@H]3Oc4c(O)ccc5c4[C@@]31CCN(CC1CC1)[C@@H]2C5)c1cccnc1
assay_value: 53
//
compound: O=C(N[C@@]12CCC(=O)[C@@H]3Oc4c(O)ccc5c4[C@@]31CCN(CC1CC1)[C@@H]2C5)c1ccncc1
assay_value: 13
//
compound: O=C(N[C@@]12CCC(=O)[C@@H]3Oc4c(O)ccc5c4[C@@]31CCN(CC1CC1)[C@@H]2C5)c1ccc2ccccc2n1
assay_value: 1.7

Turning now to a further record.
Using the record for O=C(N[C@@]12CCC(=O)[C@@H]3Oc4c(O)ccc5c4[C@@]31CCN(CC1CC1)[C@@H]2C5)c1cc2ccccc2cn1 , state its measured Ratio Ki. 7.2

* * *

biological target: Mu-type opioid receptor (Homo sapiens, UniProt P35372); experiment: Agonist activity at mu opioid receptor (unknown origin) expressed CHO cells assessed as stimulation of [35S]-GTP[gammaS] binding; type: cell-based
Sequence (P35372 whole entry): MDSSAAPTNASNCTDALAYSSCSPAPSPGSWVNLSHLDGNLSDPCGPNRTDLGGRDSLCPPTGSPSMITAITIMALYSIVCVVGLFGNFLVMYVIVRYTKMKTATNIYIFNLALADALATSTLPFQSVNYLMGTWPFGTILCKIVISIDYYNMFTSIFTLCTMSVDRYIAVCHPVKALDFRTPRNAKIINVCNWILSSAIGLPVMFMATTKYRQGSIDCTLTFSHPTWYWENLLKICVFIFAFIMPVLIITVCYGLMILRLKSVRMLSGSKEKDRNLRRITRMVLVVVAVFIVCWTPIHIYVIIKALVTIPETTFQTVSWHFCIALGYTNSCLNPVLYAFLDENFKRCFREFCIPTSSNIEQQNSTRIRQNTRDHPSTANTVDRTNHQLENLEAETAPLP
Give measured EC50 for each item. Keep answers brief.
Give bare numbers, in nM.

# count of solved cases: 3
compound: O=C(N[C@@]12CCC(=O)[C@@H]3Oc4c(O)ccc5c4[C@@]31CCN(CC1CC1)[C@@H]2C5)c1ccccc1
experimental_target: Mu-type opioid receptor (Homo sapiens, UniProt P35372)
units: nM
EC50: 7.2
//
compound: O=C(N[C@@]12CCC(=O)[C@@H]3Oc4c(O)ccc5c4[C@@]31CCN(CC1CC1)[C@@H]2C5)c1ccc2ccccc2c1
experimental_target: Mu-type opioid receptor (Homo sapiens, UniProt P35372)
units: nM
EC50: 11.1
//
compound: O=C(N[C@@]12CCC(=O)[C@@H]3Oc4c(O)ccc5c4[C@@]31CCN(CC1CC1)[C@@H]2C5)c1cnc2ccccc2c1
experimental_target: Mu-type opioid receptor (Homo sapiens, UniProt P35372)
units: nM
EC50: 2.81

Hi team, please reply with EC50 for each item in this list.
1. O=C(N[C@@]12CCC(=O)[C@@H]3Oc4c(O)ccc5c4[C@@]31CCN(CC1CC1)[C@@H]2C5)c1ccc2ccccc2n1
2. O=C(N[C@@]12CCC(=O)[C@@H]3Oc4c(O)ccc5c4[C@@]31CCN(CC1CC1)[C@@H]2C5)c1ccncc1

1. 38.8
2. 1.67
